- target under test: UniProtKB P08164
- Sequence (P08164 2-272 limits assumed): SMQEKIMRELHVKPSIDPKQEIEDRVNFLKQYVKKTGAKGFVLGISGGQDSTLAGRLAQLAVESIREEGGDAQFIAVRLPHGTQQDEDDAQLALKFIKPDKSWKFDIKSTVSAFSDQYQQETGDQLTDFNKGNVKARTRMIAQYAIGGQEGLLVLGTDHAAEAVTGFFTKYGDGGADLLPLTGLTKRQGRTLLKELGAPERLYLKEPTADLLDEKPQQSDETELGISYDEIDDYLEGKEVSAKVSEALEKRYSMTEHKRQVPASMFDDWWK
- protocol text: biochemical
- Assay type: biochemical
Label scheme for inhibition at 200 µM: lower than 80% is Condition not met, 80% and above is Condition met.

Look over these answered cases.
>>> category_label("COC(=O)c1ccc2ccn(CCCCCCC[n+]3ccccc3)c2c1")
"Condition met"
>>> category_label("C[n+]1cccc(C(=O)OCCCOc2ccccc2C=CC(=O)c2ccccc2)c1")
"Condition not met"
>>> category_label("CC(=O)C=Cc1ccc(OCCCCCCCCOC(=O)Cc2ccc([N+](C)(C)C)cc2)cc1")
"Condition met"

Ask | hey, is inhibition at 200 µM for this one >= 80%? "CCCCc1oc2ccccc2c1C(=O)c1ccc(OCCCOC(=O)c2ccc[n+](C)c2)cc1"
Reply | Condition met

Ask | Would you say "CC(=O)c1ccc(OCCCCCCCCOC(=O)Cc2ccc([N+](C)(C)C)cc2)cc1" shows inhibition at 200 µM at minimum 80%?
Reply | Condition not met

Ask | Is reported inhibition at 200 µM greater than or equal to 80% here: "C[n+]1cccc(C(=O)OCCCOc2ccc(C(=O)c3ccccc3)cc2)c1"
Reply | Condition met

---

- target under test: bacterial NAD synthetase enzyme (Bacillus subtilis)
- protocol text: biochemical
- Type: biochemical
- measurement setup: compound at 0.2 mM (Table 312B)
Answer Not satisfied if % Inhibition is under 50%, and Satisfied if it is 50% or more.

Some solved entries appear below for comparison.
>>> category_label("CN(C)c1ccc(CC(=O)OCCCCCCCCOc2ccccc2[N+](=O)[O-])cc1")
"Not satisfied"
>>> category_label("O=C(OCCCCCCCCOc1ccccc1N1CCOCC1)c1cccnc1")
"Not satisfied"
>>> category_label("C[n+]1cccc(C(=O)OCCCCCCCCOc2ccc(OC(=O)c3ccccc3)cc2)c1")
"Not satisfied"
>>> category_label("CN(C)c1ccc(CC(=O)OCCCCCCCCOc2ccccc2C=CC(=O)c2ccccc2)cc1")
"Not satisfied"
>>> category_label("CC(=O)Oc1cccc(OCCCCCCCCOC(=O)Cc2ccc(N(C)C)cc2)c1")
"Not satisfied"

# input for lookup
Ask | Check the entry "CC(=O)c1cccc(OCCCCCCCCOC(=O)c2cccnc2)c1" : does % Inhibition equal or exceed 50%?
Reply | Not satisfied

---

- target under test: bacterial NAD synthetase enzyme (Bacillus subtilis)
- Sequence (P08164 2-272 limits assumed): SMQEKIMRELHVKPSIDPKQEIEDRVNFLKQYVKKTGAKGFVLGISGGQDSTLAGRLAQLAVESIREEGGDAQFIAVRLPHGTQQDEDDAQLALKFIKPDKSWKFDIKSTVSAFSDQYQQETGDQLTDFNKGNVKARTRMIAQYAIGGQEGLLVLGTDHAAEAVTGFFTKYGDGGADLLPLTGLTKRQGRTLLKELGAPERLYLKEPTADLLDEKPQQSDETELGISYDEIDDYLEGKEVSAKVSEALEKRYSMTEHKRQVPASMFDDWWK
- protocol text: biochemical
- Assay type: biochemical
For each record, write down the corresponding IC50.
Numbers only, in µM.

Consider the reported IC50 for these compounds:
>>> readout_value("COC(=O)c1cc2ccccc2n1CCCCCCCOC(=O)c1ccc[n+](C)c1")
40
>>> readout_value("c1ccc(Oc2ccc3[nH]c(CCCC[n+]4ccccc4)cc3c2)cc1")
75
>>> readout_value("CC(=O)C=Cc1ccc(OCCCCCCCCOC(=O)Cc2ccc([N+](C)(C)C)cc2)cc1")
67.5
>>> readout_value("COC(=O)c1cc2ccccc2n1CCCCCCCCC[n+]1ccccc1")
60
>>> readout_value("CC(=O)c1ccc2[nH]c(CCCCCCCCOC(=O)c3ccc([N+](C)(C)C)cc3)cc2c1")
50
>>> readout_value("C[N+](C)(C)c1ccc(CC(=O)OCCCCCCCCn2ccc3ccccc32)cc1")
60

Working through the 2 compounds below one at a time, give IC50 for each.
1. C[N+](C)(C)c1ccc(CC(=O)OCCCCn2ccc3cc(OCc4ccccc4)ccc32)cc1
2. CC(=O)c1ccc2[nH]c(CCCCCCCOC(=O)c3cccc([N+](C)(C)C)c3)cc2c1

Reply |
85
80

Hey, quick one: what's IC50 for each of these?
1. CC(=O)c1ccc(OCCCCCCCCOC(=O)Cc2ccc([N+](C)(C)C)cc2)cc1
2. COC(=O)c1cc2ccccc2n1CCCCCCCCOC(=O)Cc1ccc([N+](C)(C)C)cc1

Reply |
[123, 15]

---

- target under test: UniProt:P08164
- protocol text: biochemical
- Format: biochemical
// NO strictly below 90% in inhibition at 100 µM; YES otherwise

Recorded results for 8 compounds are shown here.
>>> category_label("C[n+]1cccc(C(=O)OCCCCCCn2ccc3cc(OCc4ccccc4)ccc32)c1")
"YES"
>>> category_label("C[N+](C)(C)c1ccc(CC(=O)OCCCCCCCCn2ccc3cc(OCc4ccccc4)ccc32)cc1")
"YES"
>>> category_label("COC(=O)c1ccc2ccn(CCCCCCCCC[n+]3ccccc3)c2c1")
"NO"
>>> category_label("COC(=O)c1cc2cc(OCc3ccccc3)ccc2n1CCCCCCCOC(=O)Cc1ccc([N+](C)(C)C)cc1")
"NO"
>>> category_label("C[n+]1cccc(C(=O)OCCCCCCCn2ccc3cc(OCc4ccccc4)ccc32)c1")
"YES"
>>> category_label("C[N+](C)(C)c1cccc(C(=O)OCCCCCCCCc2cc3cc(C(=O)c4ccccc4)ccc3[nH]2)c1")
"YES"
>>> category_label("COC(=O)c1cc2cc(OCc3ccccc3)ccc2n1CCCCCCC[n+]1ccccc1")
"YES"
>>> category_label("C[n+]1cc(C(=O)OCCCCCCn2ccc3cc([N+](=O)[O-])ccc32)cc2ccccc21")
"NO"

Ask | // inclusive: inhibition at 100 µM at least 90%? input: "CC(=O)c1ccc2[nH]c(CCCCCCCCOC(=O)c3cccc([N+](C)(C)C)c3)cc2c1"
Reply | YES

Ask | Check the entry "C[N+](C)(C)c1ccc(CC(=O)OCCCCCCn2ccc3cc(OCc4ccccc4)ccc32)cc1" : does inhibition at 100 µM equal or exceed 90%?
Reply | YES

Ask | Has "CC(=O)c1ccc2[nH]c(CCCCCCCCOC(=O)c3cc[n+](C)cc3)cc2c1" a recorded inhibition at 100 µM greater than or equal to 90%?
Reply | YES

Ask | Please indicate if the recorded inhibition at 100 µM for "CC(=O)c1ccc2[nH]c(CCCCCCCOC(=O)c3cccc([N+](C)(C)C)c3)cc2c1" meets or exceeds 90%.
Reply | YES

Ask | Decide: is the reported value of inhibition at 100 µM for "C[N+](C)(C)c1ccc(C(=O)OCCCCc2cc3cc(Oc4ccccc4)ccc3[nH]2)cc1" equal to or greater than 90%?
Reply | YES

---

- target under test: bacterial NAD synthetase enzyme (Bacillus subtilis, UniProt P08164)
- protocol text: biochemical
- Type: biochemical
Provide the recorded IC50 for the entries that follow.
One number for each entry, in µM.

Example entries and their recorded answers appear below.
>>> readout_value("CC(=O)c1ccc2[nH]c(CCCCCCCCOC(=O)c3cccc([N+](C)(C)C)c3)cc2c1")
40
>>> readout_value("C[N+](C)(C)c1ccc(CC(=O)OCCCCCCCCOc2ccccc2C(N)=O)cc1")
100
>>> readout_value("C[n+]1cccc(C(=O)OCCCCCCCCOc2cccc([N+](=O)[O-])c2)c1")
37.5

// for each compound in input: emit IC50
1. CC(=O)c1ccc2[nH]c(CCCCCCCCOC(=O)c3ccc[n+](C)c3)cc2c1
2. COC(=O)c1cc2ccccc2n1CCCCCCCCOC(=O)c1ccc[n+](C)c1
3. C[N+](C)(C)c1cccc(C(=O)OCCCCCCCc2cc3ccc(C(F)(F)F)cc3[nH]2)c1
4. C[N+](C)(C)c1cccc(C(=O)OCCCCCCCCc2cc3cc(C(=O)c4ccccc4)ccc3[nH]2)c1
5. C[n+]1cccc(C(=O)OCCCCCCCn2ccc3cc(OCc4ccccc4)ccc32)c1
6. CC(C)c1ccc2[nH]c(CCCCCCCCOC(=O)c3cc[n+](C)cc3)cc2c1
7. COC(=O)c1ccc2c(ccn2CCCCCCCCC[n+]2cc(C(=O)OC)cc3ccccc32)c1

Reply |
[25, 45, 40, 90, 30, 25, 40]
